- Test Name: Plasma PK of ANEB-001 and THC, 30 mg or 10 mg oral Compound 1 with 21 mg THC (Example 4)
- Assay type: in vivo, human
- Experimental Context: human, in vivo, 21 mg THC + 30 mg ANEB-001; read-out: THC plasma AUC5H, Median
Measured Endpoint: AUC(0-t) (ng·h/mL)
Report only the number, with the unit ng·h/mL understood.

q: // returns reported AUC(0-t) for input CCCCCc1cc(O)c2c(c1)OC(C)(C)[C@@H]1CCC(C)=C[C@@H]21 [THC, Δ9-tetrahydrocannabinol]
a: 16.1

* * *

- Test Name: Plasma PK of ANEB-001 and THC, 50 and 100 mg oral Compound 1 with THC (Example 2)
- Assay type: in vivo, human
- Experimental Context: human, in vivo, 10 mg THC + 50 mg ANEB-001; 0.67 hrs; read-out: THC Concentration in Plasma, Median
Measured Endpoint: concentration at 0.67 h (ng/mL)
Report only the number, with the unit ng/mL understood.

q: // returns reported concentration at 0.67 h for input CCCCCc1cc(O)c2c(c1)OC(C)(C)[C@@H]1CCC(C)=C[C@@H]21 [THC, Δ9-tetrahydrocannabinol]
a: 2.41

* * *

- Test Name: Plasma PK of ANEB-001 and THC, 50 and 100 mg oral Compound 1 with THC (Example 2)
- Format: in vivo, human
- Experimental Context: human, in vivo, 10 mg THC + 100 mg ANEB-001; 24 hrs; read-out: THC Concentration in Plasma, Mean
Measured Endpoint: concentration at 24 h (pg/mL)
Report only the number, with the unit pg/mL understood.

q: // returns reported concentration at 24 h for input CCCCCc1cc(O)c2c(c1)OC(C)(C)[C@@H]1CCC(C)=C[C@@H]21 [THC, Δ9-tetrahydrocannabinol]
a: 6

* * *

- Test Name: Plasma PK of ANEB-001 and THC, 30 mg or 10 mg oral Compound 1 with 21 mg THC (Example 4)
- Type: in vivo, human
- Experimental Context: human, in vivo, 21 mg THC + 30 mg ANEB-001; read-out: THC plasma Cmax, Median
Measured Endpoint: Cmax
Please give the number followed by its unit.

q: // returns reported Cmax for input CCCCCc1cc(O)c2c(c1)OC(C)(C)[C@@H]1CCC(C)=C[C@@H]21 [THC, Δ9-tetrahydrocannabinol]
a: 9.28 ng/mL

* * *

- Test Name: Plasma PK of ANEB-001 and THC, 50 and 100 mg oral Compound 1 with THC (Example 2)
- Format: in vivo, human
- Experimental Context: human, in vivo, 10 mg THC + 100 mg ANEB-001; 5 hrs; read-out: THC Concentration in Plasma, Median
Measured Endpoint: concentration at 5 h (ng/mL)
Report only the number, with the unit ng/mL understood.

q: // returns reported concentration at 5 h for input CCCCCc1cc(O)c2c(c1)OC(C)(C)[C@@H]1CCC(C)=C[C@@H]21 [THC, Δ9-tetrahydrocannabinol]
a: 0.228

* * *

- Assay Target: UniProt P34972
- Sequence (P34972 whole entry): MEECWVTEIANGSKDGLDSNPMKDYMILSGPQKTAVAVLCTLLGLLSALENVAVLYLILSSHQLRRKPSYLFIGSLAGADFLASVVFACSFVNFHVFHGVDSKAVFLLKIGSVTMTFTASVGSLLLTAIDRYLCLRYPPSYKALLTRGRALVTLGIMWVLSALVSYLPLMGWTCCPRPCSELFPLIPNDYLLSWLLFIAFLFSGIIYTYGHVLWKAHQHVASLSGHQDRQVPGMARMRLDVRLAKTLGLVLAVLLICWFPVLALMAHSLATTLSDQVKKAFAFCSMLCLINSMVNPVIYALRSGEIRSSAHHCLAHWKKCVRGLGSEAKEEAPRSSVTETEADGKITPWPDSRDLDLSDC
- Test Name: PathHunter GPCR Biosensor cAMP assay, CNR2 agonist mode
- Experimental Context: Gi cAMP, 25 μM Forskolin
Reported EC50 values follow for various molecules

1. CC(C)(CO)NC(=O)N1CC(OC(c2ccc(Cl)cc2)c2ccccc2C(F)(F)F)C1 (centres unmarked) [Compound 2]; > 1000 nM

# input for lookup
q: // returns reported EC50 for input CC(C)(NC(=O)N1CC(OC(c2ccc(Cl)cc2)c2ccccc2C(F)(F)F)C1)C(=O)O (centres unmarked) [Compound 3]
a: > 1000 nM

* * *

- Test Name: Plasma PK of ANEB-001 and THC, 50 and 100 mg oral Compound 1 with THC (Example 2)
- Format: in vivo, human
- Experimental Context: human, in vivo, 10 mg THC + Placebo; 3 hrs; read-out: THC Concentration in Plasma, Mean
Measured Endpoint: concentration at 3 h (ng/mL)
Report only the number, with the unit ng/mL understood.

q: // returns reported concentration at 3 h for input CCCCCc1cc(O)c2c(c1)OC(C)(C)[C@@H]1CCC(C)=C[C@@H]21 [THC, Δ9-tetrahydrocannabinol]
a: 1.01

* * *

- Test Name: Plasma PK of ANEB-001 and THC, 30 mg or 10 mg oral Compound 1 with 21 mg THC (Example 4)
- Type: in vivo, human
- Experimental Context: human, in vivo, 21 mg THC + 30 mg ANEB-001; 00H20M; read-out: THC in Plasma (concentration), Mean
Measured Endpoint: concentration at 20 min (ng/mL)
Report only the number, with the unit ng/mL understood.

q: // returns reported concentration at 20 min for input CCCCCc1cc(O)c2c(c1)OC(C)(C)[C@@H]1CCC(C)=C[C@@H]21 [THC, Δ9-tetrahydrocannabinol]
a: 4.16

* * *

- Test Name: Plasma PK of ANEB-001 and THC, 30 mg or 10 mg oral Compound 1 with 21 mg THC (Example 4)
- Type: in vivo, human
- Experimental Context: human, in vivo, 21 mg, 21 mg THC + Placebo; 03H00M; read-out: THC in Plasma (concentration), Median
Measured Endpoint: concentration at 3 h (ng/mL)
Report only the number, with the unit ng/mL understood.

q: // returns reported concentration at 3 h for input CCCCCc1cc(O)c2c(c1)OC(C)(C)[C@@H]1CCC(C)=C[C@@H]21 [THC, Δ9-tetrahydrocannabinol]
a: 1.47

* * *

- Test Name: Plasma PK of ANEB-001 and THC, 30 mg or 10 mg oral Compound 1 with 21 mg THC (Example 4)
- Format: in vivo, human
- Experimental Context: human, in vivo, 21 mg, 21 mg THC + Placebo; read-out: THC plasma Cmax, Median
Measured Endpoint: Cmax
Please give the number followed by its unit.

q: // returns reported Cmax for input CCCCCc1cc(O)c2c(c1)OC(C)(C)[C@@H]1CCC(C)=C[C@@H]21 [THC, Δ9-tetrahydrocannabinol]
a: 5.47 ng/mL

* * *

- Test Name: Plasma PK of ANEB-001 and THC, 50 and 100 mg oral Compound 1 with THC (Example 2)
- Assay type: in vivo, human
- Experimental Context: human, in vivo, 10 mg THC + 50 mg ANEB-001; 24 hrs; read-out: THC Concentration in Plasma, Mean
Measured Endpoint: concentration at 24 h (pg/mL)
Report only the number, with the unit pg/mL understood.

q: // returns reported concentration at 24 h for input CCCCCc1cc(O)c2c(c1)OC(C)(C)[C@@H]1CCC(C)=C[C@@H]21 [THC, Δ9-tetrahydrocannabinol]
a: 5.55

* * *

- Test Name: Plasma PK of ANEB-001 and THC, 30 mg or 10 mg oral Compound 1 with 21 mg THC (Example 4)
- Format: in vivo, human
- Experimental Context: human, in vivo, 21 mg THC + 30 mg ANEB-001; 05H00M; read-out: THC in Plasma (concentration), Median
Measured Endpoint: concentration at 5 h (ng/mL)
Report only the number, with the unit ng/mL understood.

q: // returns reported concentration at 5 h for input CCCCCc1cc(O)c2c(c1)OC(C)(C)[C@@H]1CCC(C)=C[C@@H]21 [THC, Δ9-tetrahydrocannabinol]
a: 0.684

* * *

- Test Name: Plasma PK of ANEB-001 and THC, 50 and 100 mg oral Compound 1 with THC (Example 2)
- Assay type: in vivo, human
- Experimental Context: human, in vivo, 10 mg THC + 100 mg ANEB-001; 0.67 hrs; read-out: THC Concentration in Plasma, Mean
Measured Endpoint: concentration at 0.67 h (ng/mL)
Report only the number, with the unit ng/mL understood.

q: // returns reported concentration at 0.67 h for input CCCCCc1cc(O)c2c(c1)OC(C)(C)[C@@H]1CCC(C)=C[C@@H]21 [THC, Δ9-tetrahydrocannabinol]
a: 3.54

* * *

- Test Name: Plasma PK of ANEB-001 and THC, 50 and 100 mg oral Compound 1 with THC (Example 2)
- Type: in vivo, human
- Experimental Context: human, in vivo, 10 mg THC + Placebo; 0.67 hrs; read-out: THC Concentration in Plasma, Median
Measured Endpoint: concentration at 0.67 h (ng/mL)
Report only the number, with the unit ng/mL understood.

q: // returns reported concentration at 0.67 h for input CCCCCc1cc(O)c2c(c1)OC(C)(C)[C@@H]1CCC(C)=C[C@@H]21 [THC, Δ9-tetrahydrocannabinol]
a: 1.81

* * *

- Test Name: Plasma PK of ANEB-001 and THC, 50 and 100 mg oral Compound 1 with THC (Example 2)
- Format: in vivo, human
- Experimental Context: human, in vivo, 10 mg THC + 50 mg ANEB-001; 4 hrs; read-out: THC Concentration in Plasma, Mean
Measured Endpoint: concentration at 4 h (ng/mL)
Report only the number, with the unit ng/mL understood.

q: // returns reported concentration at 4 h for input CCCCCc1cc(O)c2c(c1)OC(C)(C)[C@@H]1CCC(C)=C[C@@H]21 [THC, Δ9-tetrahydrocannabinol]
a: 0.432
